Biological target: Orexin receptor type 2 (Homo sapiens) (UniProt O43614)
Sequence (whole entry): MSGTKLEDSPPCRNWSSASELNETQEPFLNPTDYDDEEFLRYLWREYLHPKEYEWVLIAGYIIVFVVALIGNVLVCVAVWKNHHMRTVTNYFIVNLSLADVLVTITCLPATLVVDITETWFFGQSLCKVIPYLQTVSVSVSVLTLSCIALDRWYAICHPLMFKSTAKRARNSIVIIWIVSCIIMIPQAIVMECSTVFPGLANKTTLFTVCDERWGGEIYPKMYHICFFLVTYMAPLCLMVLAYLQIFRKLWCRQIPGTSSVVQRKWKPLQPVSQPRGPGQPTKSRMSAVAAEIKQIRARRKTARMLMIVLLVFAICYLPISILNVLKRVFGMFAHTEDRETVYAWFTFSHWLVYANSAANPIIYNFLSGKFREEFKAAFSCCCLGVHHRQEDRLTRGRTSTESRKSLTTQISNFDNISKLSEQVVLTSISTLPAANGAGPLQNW
Assay: Agonist activity at human OX2 receptor expressed in CHOK1 cells assessed as increase in calcium accumulation at 10 uM incubated for 30 mins measured for 150 secs by calcium-4 dye based FLIPR assay relative to orexin-A
Format: functional, cell-based
property measured: Emax (%)

* CC(C)(C)OC(=O)NCC(=O)Oc1ccc2ccc(Cl)ccc1-2 | -1.01
* O=C(O)c1ccc2c(C(=O)c3ccccc3)cc(C(=O)c3ccccc3)c-2cc1 | -2.09
* COC(=O)c1cccc2c(C=O)cc(I)c-2c1 | 0.68
* COC(=O)Cc1ccc2c(C(=O)c3ccccc3)cc(C(=O)c3ccccc3)c-2cc1 | 0.05
* O=Cc1ccc2ccc(C(=O)O)ccc1-2 | 3.47
* COC(=O)c1ccc2ccc(C(=O)c3ccccc3)c-2cc1 | 4.92
* O=C(O)c1cccc2c(C(=O)c3ccccc3)cc(C(=O)c3ccc(C(Cl)(Cl)Cl)cc3)c-2c1 | -3.18
* O=C(Oc1ccc2ccc(Cl)ccc1-2)c1cccs1 | -2.7
* COC(=O)c1ccc2ccc(C=O)c-2cc1 | 2.26
* COC(=O)c1cc(C=O)c2ccc(/C=C/c3cnc[nH]3)ccc1-2 | 0.4
* O=C(O)Cc1ccc2ccc(C(=O)c3ccc(C(F)(F)F)cc3)c-2cc1 | -1.06
* COC(=O)CCC(=O)Oc1ccc2ccc(Cl)ccc1-2 | -2.13
* CCOc1ccc(-c2cc(C(=O)c3ccccc3)c3ccc(C(=O)OC)ccc2-3)cc1 | -0.24
* O=C(O)c1ccc2ccc(C(=O)c3ccc(C(F)(F)F)cc3)c-2cc1 | 2.96
* CCOc1ccc(-c2cc(C(=O)c3ccccc3)c3ccc(C(=O)O)ccc2-3)cc1 | -0.99
* COC(=O)Cc1ccc2ccc(C(=O)c3ccc(C(F)(F)F)cc3)c-2cc1 | 0.37
* COC(=O)c1ccc2c(C(=O)c3ccccc3)cc(C(=O)c3ccccc3)c-2cc1 | -1.51
* COC(=O)c1ccc2c(C=O)cc(-c3ccccc3)c-2cc1 | -0.27
* O=C(Oc1ccc2ccc(Cl)ccc1-2)c1cccnc1 | -2.65
* COC(=O)c1cccc2c(C(=O)c3ccccc3)cc(C(=O)c3ccc(C(Cl)(Cl)Cl)cc3)c-2c1 | -0.14
* NC(=O)c1ccc2c(C=O)cc(-c3ccccc3)c-2cc1 | 1.71
* COC(=O)c1cccc2c(C(=O)c3ccccc3)cc(C(=O)c3ccc(C(F)(F)F)cc3)c-2c1 | -0.14
